- Test system: primary human hepatic stellate cells (donor 1)
- assayProtocol: scaled lipid accumulation score (0 = DMSO-like, 1 = nortriptyline-like); higher = stronger HSC inactivation (lipid re-accumulation), active = hit call of the paper
- experimentalSetup: library stock concentration: 10 mM; 48 h
Where a name gives a salt, the structure may show the parent alone. Hit rate of the full screen: of about 5,800 compounds, about 620 (11%) showed activity.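 How the source made its calls: active = score above a cut-off or among the top three wells of a plate; in these data no inactive exceeds 0.85.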 The list comes from a sample in which actives are over-represented; it also holds close analogues and randomly drawn compounds.
Classes used: Yes = active, No = inactive

INSERT INTO results (compound, classification) VALUES
  ('C[C@]1(O)C[C@@H](c2nc(-c3ccc4ccc(-c5ccccc5)nc4c3)c3c(N)nccn32)C1', 'No'),
  ('C=CC(=O)Nc1cccc(Nc2nc(Nc3ccc(OCCOC)cc3)ncc2F)c1 [Spebrutinib]', 'No'),
  ('CC1(COc2ccc3c(c2)ncn3-c2ccc3cccc(N4CCC(N)CC4)c3n2)COC1', 'No'),
  ('COc1cc(Nc2ncc(F)c(Nc3ccc4c(n3)NC(=O)C(C)(C)O4)n2)cc(OC)c1OC.O=S(=O)(O)c1ccccc1', 'Yes'),
  ('COc1cc(Nc2ncc(F)c(Nc3ccc4c(n3)NC(=O)C(C)(C)O4)n2)cc(OC)c1OC [R406 (free base)]', 'Yes'),
  ('COc1cc(Nc2ncc3c(n2)-c2ccc(Cl)cc2C(c2c(F)cccc2OC)=NC3)ccc1C(=O)O', 'No'),
  ('CC1CCN=C(N)S1 (centres undefined) [AMT hydrochloride]', 'No'),
  ('Nc1c2c(nc3c1CCC3)CCCC2', 'No'),
  ('C=CC(=O)Nc1cccc(Nc2nc(Nc3ccc(OCCOC)cc3)ncc2F)c1', 'No'),
  ('CC1CCN=C(N)S1 (centres undefined)', 'No'),
  ('C[C@@H](N)c1ccc(C(=O)Nc2ccnc3[nH]ccc23)cc1.Cl.Cl', 'Yes'),
  ('COc1cccc(OC)c1OCCNCC1COc2ccccc2O1 (centres undefined) [WB 4101 hydrochloride]', 'No'),
  ('C(=C/CCN(C)C)(/c1c2cccc1)\c3c(cccc3)C=C2.Cl [Cyclobenzaprine hydrochloride]', 'Yes'),
  ('COc1cccc(CCc2ccccc2OCC[C@@H]2C[C@@H](O)CN2C)c1.Cl', 'Yes'),
  ('COc1cc(Nc2ncc(F)c(Nc3ccc4c(n3)N(COP(=O)(O)O)C(=O)C(C)(C)O4)n2)cc(OC)c1OC [Fostamatinib (R788)]', 'Yes'),
  ('O=C1c2c(O)cc(O)cc2O[C@H](c2ccc(O)c(O)c2)[C@H]1O', 'No'),
  ('O=c1c2ccccc2nc2n1CCc1c-2[nH]c2ccccc12', 'No');
